- EXPERIMENTAL_TARGET: human full-length MKNK1 (Homo sapiens, UniProt Q9BUB5, T385D)
- Sequence (Q9BUB5 1-424 isoform Q9BUB5-2 T344D): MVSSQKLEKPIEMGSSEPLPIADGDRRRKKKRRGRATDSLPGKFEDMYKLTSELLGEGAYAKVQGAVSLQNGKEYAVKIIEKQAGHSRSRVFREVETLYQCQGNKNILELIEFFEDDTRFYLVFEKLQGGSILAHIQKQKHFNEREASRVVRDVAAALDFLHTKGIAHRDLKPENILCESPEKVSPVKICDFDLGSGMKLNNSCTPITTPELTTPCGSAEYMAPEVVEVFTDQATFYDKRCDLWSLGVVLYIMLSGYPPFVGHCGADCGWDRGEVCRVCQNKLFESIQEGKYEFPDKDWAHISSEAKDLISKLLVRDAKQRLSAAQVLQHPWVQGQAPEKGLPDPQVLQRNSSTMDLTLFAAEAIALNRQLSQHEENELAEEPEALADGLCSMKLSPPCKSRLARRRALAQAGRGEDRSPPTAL
- EXPERIMENTAL_PROTOCOL: MKNK1 kinase high ATP assay (TR-FRET)
- PARTICULARS: high ATP (2 mM), 15 min preincubation with enzyme, GST-MKNK1 (T344D)
IC50 less than 50 nM is satisfied; IC50 greater than or equal to 50 nM is not satisfied.

Determine if CS(=O)(=O)CCCNC(=O)C1CCc2[nH]c3ncnc(Nc4ccccc4OC4CCOC4)c3c2C1 (racemic) [Example 167] shows IC50 strictly lower than 50 nM.
not satisfied

Criterion: IC50 strictly below 50 nM. Is it met by COc1cc(Cl)c(Cl)cc1Nc1ncnc2[nH]c3c(c12)CC(C(=O)O)CC3 (racemic) [Example 18] ?
satisfied

Does the reported IC50 of the following compound sit strictly below 50 nM? COc1cc2[nH]ncc2cc1Nc1ncnc2[nH]c3c(c12)CC(C(=O)NC(C)C)CC3 (racemic) [Example 216]
satisfied

Consider the compound CN1CCN(C(=O)C2CCc3[nH]c4ncnc(Nc5ccc6[nH]c(=O)sc6c5)c4c3C2)CC1 (racemic) [Example 222] . Is its IC50 strictly less than 50 nM?
satisfied

Item COc1cc(Cl)c(Cl)cc1Nc1ncnc2[nH]c3c(c12)CC(C(=O)Nc1ccccc1)CC3 (racemic) [Example 22] : IC50 beneath 50 nM, strictly?
not satisfied

hey, is IC50 for Cn1c2c(c3c(Nc4ccc5[nH]ncc5c4)ncnc31)CC(C(=O)NCCCS(C)(=O)=O)CC2 (racemic) [Example 26] lower than 50 nM or not?
not satisfied

In the record for COc1ccc(Cl)cc1Sc1ncnc2[nH]c3c(c12)CC(C(=O)NCCCS(C)(=O)=O)CC3 (racemic) [Example 148] , is IC50 less than 50 nM?
not satisfied

Dear reviewer, please state whether CS(=O)(=O)CCCNC(=O)C1CCc2[nH]c3ncnc(Nc4ccc(F)cc4OCCO)c3c2C1 (racemic) [Example 159] has IC50 strictly beneath 50 nM.
satisfied

Decide: IC50 of COc1ccc(F)cc1Nc1ncnc2[nH]c3c(c12)CC(C(=O)NC1CC1)CC3 (racemic) [Example 197] strictly below 50 nM?
not satisfied

Decide: IC50 of CCOC(=O)C1CCc2[nH]c3ncnc(Nc4ccc(F)cc4OCCO)c3c2C1 (racemic) [Example 176] strictly below 50 nM?
not satisfied

# check: IC50 < 50 nM for CCOC(=O)C1CCc2[nH]c3ncnc(Nc4cc(Cl)ccc4OC(C)C)c3c2C1 (racemic) [Example 177]
not satisfied

IC50 strictly < 50 nM for this compound? COc1ccc(N(C)C)cc1Nc1ncnc2[nH]c3c(c12)CC(C(=O)NCCCS(C)(=O)=O)CC3 (racemic) [Example 158]
not satisfied

IC50 under 50 nM? Item: CS(=O)(=O)CCCNC(=O)C1CCc2[nH]c3ncnc(Nc4ccccc4OC4CCOCC4)c3c2C1 (racemic) [Example 79]
not satisfied

Given CS(=O)(=O)CCCNC(=O)C1CCc2[nH]c3ncnc(Nc4ccccc4OC(F)(F)F)c3c2C1 (racemic) [Example 32] , is recorded IC50 strictly lower than 50 nM?
not satisfied

Please indicate whether the reported IC50 of O=c1[nH]c2ccc(Nc3ncnc4[nH]c5c(c34)CC(F)(F)CC5)cc2s1 [Example 142] is strictly below 50 nM.
satisfied

Quick check: IC50 of FC1(F)CCc2[nH]c3ncnc(Nc4ccc5[nH]ncc5c4)c3c2C1 [Example 10] under 50 nM?
satisfied

Consider CC(C)Oc1cc(F)ccc1Nc1ncnc2[nH]c3c(c12)CC(C(=O)NCCCS(C)(=O)=O)CC3 (racemic) [Example 28] . Does its IC50 lie strictly below 50 nM?
satisfied

Say whether its IC50 is strictly beneath 50 nM. Entry: COc1ccc(F)cc1Nc1ncnc2[nH]c3c(c12)CC(C(=O)O)CC3 (racemic) [Example 181]
not satisfied

Could you please tell me whether IC50 recorded for CC(C)NC(=O)C1CCc2[nH]c3ncnc(N4CCc5ccccc54)c3c2C1 (racemic) [Example 208] is less than 50 nM?
not satisfied

Item COCC1(OC)CCc2[nH]c3ncnc(Nc4cc5cn[nH]c5cc4OC)c3c2C1 (racemic) [Example 136] : IC50 beneath 50 nM, strictly?
satisfied

Please indicate whether the reported IC50 of CNC(=O)C1CCc2[nH]c3ncnc(N4CCc5ccccc54)c3c2C1 (racemic) [Example 212] is strictly below 50 nM.
not satisfied

Lab note: IC50 threshold 50 nM. Does this compound come in strictly under it? c1ccc(N2CCOCC2)c(Nc2ncnc3[nH]c4c(c23)CCCC4)c1 [Example 118]
not satisfied

Strictly below 50 nM: is that where IC50 of COCC1(OC)CCc2[nH]c3ncnc(Nc4cc5cn[nH]c5cc4F)c3c2C1 (racemic) [Example 139] sits?
not satisfied

Given CC(C)Oc1cc2[nH]ncc2cc1Nc1ncnc2[nH]c3c(c12)CC(C(=O)NCCCS(C)(=O)=O)CC3 (racemic) [Example 230] , is recorded IC50 strictly lower than 50 nM?
satisfied

Threshold test, IC50 < 50 nM: COc1cc2[nH]ncc2cc1Nc1ncnc2[nH]c3c(c12)CC(C(=O)NCc1cccc(C(F)(F)F)c1)CC3 (racemic) [Example 220]
satisfied

is_below(IC50, 50 nM) for O=C(O)C1CCc2[nH]c3ncnc(Nc4ccc5[nH]ncc5c4)c3c2C1 (racemic) [Example 6] ?
not satisfied

Determine whether this compound shows IC50 lower than 50 nM (ties excluded): CS(=O)(=O)CCCNC(=O)C1CCc2[nH]c3ncnc(Nc4ccc5[nH]c(=O)sc5c4)c3c2C1 (racemic) [Example 29]
satisfied

Please indicate whether the reported IC50 of COc1ccc(F)cc1Nc1ncnc2[nH]c3c(c12)CCCC3 [Example 108] is strictly below 50 nM.
not satisfied

Criterion: IC50 strictly below 50 nM. Is it met by CCNC(=O)C1CCc2[nH]c3ncnc(N4CCc5ccccc54)c3c2C1 (racemic) [Example 207] ?
not satisfied

Item COc1cc2[nH]ncc2cc1Nc1ncnc2[nH]c3c(c12)CC(F)(F)CC3 [Example 141] : IC50 beneath 50 nM, strictly?
satisfied

====

- EXPERIMENTAL_TARGET: human full-length MKNK1 (Homo sapiens, UniProt Q9BUB5, T385D)
- EXPERIMENTAL_PROTOCOL: MKNK1 kinase high ATP assay (TR-FRET)
- PARTICULARS: high ATP (2 mM), 15 min preincubation with enzyme, GST-MKNK1 (T344D)
Classify: label 1 when IC50 is strictly less than 400 nM; label 0 when IC50 is not.

Could you please tell me whether IC50 recorded for CCNC(=O)C1CCc2[nH]c3ncnc(Nc4cc(F)ccc4OC)c3c2C1 (racemic) is less than 400 nM?
label 1

Record O=C(NC1CC1)C1CCc2[nH]c3ncnc(Nc4ccccc4OC4CCCC4)c3c2C1 (racemic) : is its IC50 strictly below 400 nM?
label 1

Confirm or reject: IC50 of O=C(NCc1cccc(C(F)(F)F)c1)C1CCc2[nH]c3ncnc(N4CCc5ccccc54)c3c2C1 (racemic) lies strictly below 400 nM
label 0

Hi there! Is IC50 for CS(=O)(=O)CCCNC(=O)C1CCc2[nH]c3ncnc(Nc4ccc5c(c4)OC(F)(F)O5)c3c2C1 (racemic) below 400 nM, do you know?
label 0

Is it true that IC50 reported for `Nc1ccc2c(c1)N(c1ncnc3[nH]c4c(c13)CCCC4)CC2` is less than 400 nM?
label 0

Is IC50 strictly under 400 nM for the entry CC(C)Oc1cc(F)ccc1Nc1ncnc2[nH]c3c(c12)C[S+]([O-])CC3 (racemic) ?
label 1

Determine if O=C(NCc1ccccc1)C1CCc2[nH]c3ncnc(Nc4ccccc4N4CCOCC4)c3c2C1 (racemic) shows IC50 strictly lower than 400 nM.
label 1

Item CN1CCN(C(=O)C2CCc3[nH]c4ncnc(N5CCc6ccccc65)c4c3C2)CC1 (racemic) : IC50 beneath 400 nM, strictly?
label 0

Does CS(=O)(=O)CCCNC(=O)C1CCc2[nH]c3ncnc(N4CCc5ccccc54)c3c2C1 (racemic) have IC50 strictly under 400 nM?
label 0

Bench note: check whether CS(=O)(=O)CCCNC(=O)C1CCc2[nH]c3ncnc(Nc4cccc(F)c4F)c3c2C1 (racemic) shows IC50 below 400 nM
label 0

I'd appreciate it if you could check whether CCNC(=O)C1CCc2[nH]c3ncnc(Nc4ccc5[nH]ncc5c4)c3c2C1 (racemic) has IC50 smaller than 400 nM.
label 1

For this compound, is IC50 lower than 400 nM? `COc1cc2[nH]ncc2cc1Nc1ncnc2[nH]c3c(c12)CCCC3`
label 1

Field: below-cutoff. Rule: recorded IC50 strictly less than 400 nM. Subject: CS(=O)(=O)CCCNC(=O)C1CCc2[nH]c3ncnc(Nc4ccc(C(=O)N5CCCC5)cc4)c3c2C1 (racemic)
label 0

Bench note: check whether O=C(O)C1CCc2[nH]c3ncnc(Nc4cc5[nH]c(=O)[nH]c5cc4Cl)c3c2C1 (racemic) shows IC50 below 400 nM
label 0

Lab note: IC50 threshold 400 nM. Does this compound come in strictly under it? `c1ccc(CN2CCc3[nH]c4ncnc(Nc5ccc6[nH]ncc6c5)c4c3C2)cc1`
label 1
